Measured IC50, listed per entry.
- STUDY TARGET: COX-2 (Ovis aries, UniProt P79208)
- Sequence (P79208 17-603): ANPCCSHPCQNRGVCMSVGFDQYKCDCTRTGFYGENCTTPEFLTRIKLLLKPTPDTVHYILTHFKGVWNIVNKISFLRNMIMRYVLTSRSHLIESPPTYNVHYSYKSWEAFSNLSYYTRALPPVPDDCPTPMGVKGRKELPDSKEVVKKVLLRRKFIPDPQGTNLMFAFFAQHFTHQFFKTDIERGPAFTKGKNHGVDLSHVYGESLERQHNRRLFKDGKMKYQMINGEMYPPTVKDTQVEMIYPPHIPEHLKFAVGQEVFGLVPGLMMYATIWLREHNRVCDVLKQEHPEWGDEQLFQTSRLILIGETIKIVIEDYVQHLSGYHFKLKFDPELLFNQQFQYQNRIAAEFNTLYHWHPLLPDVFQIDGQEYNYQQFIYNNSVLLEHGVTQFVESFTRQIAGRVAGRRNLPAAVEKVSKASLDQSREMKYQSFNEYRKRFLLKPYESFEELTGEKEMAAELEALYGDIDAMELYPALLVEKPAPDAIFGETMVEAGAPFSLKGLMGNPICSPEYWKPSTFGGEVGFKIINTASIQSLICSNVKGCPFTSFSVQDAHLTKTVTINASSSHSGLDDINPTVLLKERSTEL

Entry under test: C[C@@H](NC(=O)[C@@H](N)Cn1ccc(=O)c(O)c1)C(=O)O [Mi-D-Ala] . Its IC50 was 198 µM

// N[C@@H](Cn1ccc(=O)c(O)c1)C(=O)N1CCC[C@H]1C(=O)O [Mi-L-Pro] : IC50 value = 29.3 µM

Looking up N[C@@H](Cn1ccc(=O)c(O)c1)C(=O)N1CCC[C@@H]1C(=O)O [Mi-D-Pro] , I found its IC50 recorded as 128 µM

N[C@@H](Cn1ccc(=O)c(O)c1)C(=O)N[C@H](Cc1c[nH]c2ccccc12)C(=O)O [Mi-D-Trp] yielded IC50 of 27.5 µM
